B1: Azoarcus group I ribozyme (parent)
chain: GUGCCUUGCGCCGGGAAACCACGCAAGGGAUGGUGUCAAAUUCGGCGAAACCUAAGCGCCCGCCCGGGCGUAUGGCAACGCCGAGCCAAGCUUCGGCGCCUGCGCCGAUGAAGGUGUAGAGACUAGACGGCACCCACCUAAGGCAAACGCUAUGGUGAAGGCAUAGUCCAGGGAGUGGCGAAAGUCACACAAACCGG

variants of: B1; assay: reverse-splicing fitness (ratio to wild type); higher = more active; in vitro selection; Mg2+ level not given
Exercise: for every item that follows, state its recorded reverse-splicing fitness.
Quick one: just the number, no unit, thanks!

Consider C82U A120C C150G C169A U176G . Its measured reverse-splicing fitness is 0.00606

Consider A111C A120U C150A C169A U176C . Its measured reverse-splicing fitness is 0.00383

Consider C82A A111G A145G C150U C169A . Its measured reverse-splicing fitness is 0.0115

Consider C82U A120G A145C C169A . Its measured reverse-splicing fitness is 0.014

Consider C82U A111G A145C C150A C169A . Its measured reverse-splicing fitness is 0.0083

Consider C82A A111G A120C A145C C169U U176A . Its measured reverse-splicing fitness is 0.0161

Consider C82A A111G A145G C150G U176G . Its measured reverse-splicing fitness is 0.00721

Consider C82A A111C A120C A145G C169U . Its measured reverse-splicing fitness is 0.0141

Consider C82G A111U A120U C150G U176C . Its measured reverse-splicing fitness is 0.00683

Consider C82U A111U A145C C150G C169U . Its measured reverse-splicing fitness is 0.00864

Consider C82A A111U A120G A145G C169U U176G . Its measured reverse-splicing fitness is 0.00504

Consider C82G A111C A120U A145C C150U C169A U176A . Its measured reverse-splicing fitness is 0.00238

Consider C82U A111C A120C A145U C169U . Its measured reverse-splicing fitness is 0.0103

Consider C82G A120U A145G C150G C169G . Its measured reverse-splicing fitness is 0.0074

Consider C82G A111U A120U A145G C169U U176A . Its measured reverse-splicing fitness is 0.00386

Consider A111C A145U C169G . Its measured reverse-splicing fitness is 0.071
